These entries and their values trace back to ChEMBL document CHEMBL5058577.

System: U2OS
procedure details: Multiplex assay against U2OS
Assay type: toxicity, cell-based
experimental conditions: human, 12 h, 1 µM, compound concentration 1 uM, replicate 2
observable: Total Cell Count
Number only, no unit.

Worked examples follow.
>  <compound>
Cc1sc2c(c1C)C(c1ccc(Cl)cc1)=N[C@@H](CC(=O)NCCCCCCCCNC(=O)COc1cccc3c1C(=O)N(C1CCC(=O)NC1=O)C3=O)c1nnc(C)n1-2 (stereo partly drawn)

>  <Total Cell Count>
136

$$$$
>  <compound>
Cc1onc(-c2ccccc2Cl)c1C(=O)N(C)c1ccc(Cl)cc1

>  <Total Cell Count>
136

$$$$
>  <compound>
COc1ccccc1N1CCN(C[C@@H](C(=O)NC(C)(C)C)c2ccccc2)CC1.Cl.Cl

>  <Total Cell Count>
114

$$$$
>  <compound>
Br.CS(=O)(=O)Nc1c(O)ccc2c1CCCC2C1=NCCN1 (stereo not drawn)

>  <Total Cell Count>
151

$$$$
>  <compound>
N#Cc1c(Oc2cccc(OS(=O)(=O)CCCC(F)(F)F)c2)cccc1C(F)(F)F

>  <Total Cell Count>
109

$$$$

Data request, read-out Total Cell Count, for O=C(NCCN1CCC(n2c(=O)[nH]c3cc(Cl)ccc32)CC1)c1ccc(F)cc1 [HALOPEMIDE] 105

I am curious: what Total Cell Count value has been reported for CC(=O)Nc1cccc2c1c(Sc1ccc(Cl)cc1)c(C)n2CC(=O)O ? 82

GET /values?readout=Total Cell Count&item= NCCc1cn(S(=O)(=O)c2c(Cl)nc3sccn23)c2ccccc12.O=C(O)C(=O)O 116

// Total Cell Count lookup, key: CCCCCC(O)/C=C/[C@H]1C(=O)CC(O)C1C/C=C\CCCC(=O)O (stereo partly drawn) 113

Item under review: CC[C@@H](C)Nc1nc(C)nc2c(-c3ccc(OC)nc3C)c(C)nn12 . Reported Total Cell Count? 136

Tell me the measured Total Cell Count of CCCCC(=O)N(Cc1ccc(-c2ccccc2-c2nnn[nH]2)cc1)[C@H](C(=O)O)C(C)C , please. 130

Return reported Total Cell Count; argument: CN(C)C(=O)Cn1cc(-c2ccc(-c3cncc4ccccc34)cc2)cn1 110

###

System: HEK-293T
procedure details: Multiplex assay against HEK293T
Assay type: toxicity, cell-based
experimental conditions: human, 24 h, 1 µM, compound concentration 1 uM, replicate 1
observable: Population Tubulin-Different-Phenotype (%)
The reply should be a number in %, with the unit left off.

>  <molecule>
COC[C@@H](c1ccc(C(F)(F)F)cc1)N1CCN(C2(C)CCN(C(=O)c3c(C)ncnc3C)CC2)C[C@@H]1C.O=C(O)/C=C\C(=O)O [VICRIVIROC MALEATE]

>  <quantitative result>
21

$$$$

Which value of Population Tubulin-Different-Phenotype (%) has been reported for CC(C)COc1ccc(CNC(=O)N(Cc2ccc(F)cc2)C2CCN(C)CC2)cc1 in the records? 40

Could you share which Population Tubulin-Different-Phenotype (%) value was measured for COc1ccccc1N1CCN(C[C@@H](C(=O)NC(C)(C)C)c2ccccc2)CC1.Cl.Cl ? 29

###

System: U2OS
procedure details: Multiplex assay against U2OS
Assay type: toxicity, cell-based
experimental conditions: human, 12 h, 1 µM, compound concentration 1 uM, replicate 2
The reader will find reported Population Membrane Permeable-Phenotype (%) values listed item by item below.
Respond with the bare value in %.

Below, 3 molecules whose answers are already recorded.
>  <smiles record>
CC(C)(C)c1cc(NC(=O)Nc2ccc(-c3cn4c(n3)sc3cc(OCCN5CCOCC5)ccc34)cc2)no1

>  <quantitative result>
6

$$$$
>  <smiles record>
CCCCC(=O)N(Cc1ccc(-c2ccccc2-c2nnn[nH]2)cc1)[C@H](C(=O)O)C(C)C

>  <quantitative result>
9

$$$$
>  <smiles record>
O=C1[C@H](Cc2ccc(O)cc2)N2C(=O)CCN(C(=O)NCc3ccccc3)[C@H]2CN1Cc1cccc2ccccc12

>  <quantitative result>
5

$$$$

Now, please, on to the next molecule.
Which Population Membrane Permeable-Phenotype (%) is listed for Cc1onc(-c2ccccc2Cl)c1C(=O)N(C)c1ccc(Cl)cc1 ? 4

###

# key: entry, value: Population Apoptotic (%)
Tested on: HEK-293T
procedure details: Multiplex assay against HEK293T
Assay type: toxicity, cell-based
experimental conditions: human, 12 h, 10 µM, compound concentration 10 uM, replicate 1
State the answer as a number, implicitly in %.

// worked examples, Population Apoptotic (%) included
>  <molecule>
CN(C)C(=O)Cn1cc(-c2ccc(-c3cncc4ccccc34)cc2)cn1

>  <Population Apoptotic (%)>
48

$$$$
>  <molecule>
CCCCC(=O)N(Cc1ccc(-c2ccccc2-c2nnn[nH]2)cc1)[C@H](C(=O)O)C(C)C

>  <Population Apoptotic (%)>
21

$$$$
>  <molecule>
COc1ccccc1N1CCN(C[C@@H](C(=O)NC(C)(C)C)c2ccccc2)CC1.Cl.Cl

>  <Population Apoptotic (%)>
62

$$$$

API: value(readout=Population Apoptotic (%), system=HEK-293T) for record Cc1sc2c(c1C)C(c1ccc(Cl)cc1)=N[C@@H](CC(=O)NCCCCCCCCNC(=O)COc1cccc3c1C(=O)N(C1CCC(=O)NC1=O)C3=O)c1nnc(C)n1-2 (some centres undefined) 60

API: value(readout=Population Apoptotic (%), system=HEK-293T) for record Cc1cccc(NC(=O)CN2CCC(c3ccccn3)CC2)c1.Cl.Cl 61

What measured Population Apoptotic (%) is associated with CCCCCC(O)/C=C/[C@H]1C(=O)CC(O)C1C/C=C\CCCC(=O)O (some centres undefined) on HEK-293T? 48

API: value(readout= Population Apoptotic (%), system= HEK-293T, query= CN[C@@H](C)C(=O)N[C@H](C(=O)N1CCC[C@H]1C(=O)Nc1snnc1-c1ccccc1)C1CCCCC1 ) 50

# returns recorded Population Apoptotic (%) (system: HEK-293T) for CC(C)c1noc(N2CCC(COc3ccc(-c4ccc(S(C)(=O)=O)cc4)nc3)CC2)n1 50

Form: Entry = CN1CCN(c2cc(-c3ccccc3)nc(N)n2)CC1 | System = HEK-293T | Population Apoptotic (%) = ____ 23

###

System: U2OS
procedure details: Multiplex assay against U2OS
Format: toxicity, cell-based
experimental conditions: human, 24 h, 10 µM, compound concentration 10 uM, replicate 2
Population Healthy Nuclei (%) reference
Give the value in % but do not write % after it.

Known results for compounds:
>  <compound>
CC(=O)Nc1cccc2c1c(Sc1ccc(Cl)cc1)c(C)n2CC(=O)O

>  <Population Healthy Nuclei (%)>
77

$$$$
>  <compound>
CCc1cc2cc(NS(=O)(=O)c3ccc(C#N)cc3)ccc2n(CC)c1=O

>  <Population Healthy Nuclei (%)>
79

$$$$
>  <compound>
CC(C)COc1ccc(CNC(=O)N(Cc2ccc(F)cc2)C2CCN(C)CC2)cc1

>  <Population Healthy Nuclei (%)>
50

$$$$
>  <compound>
N#Cc1c(Oc2cccc(OS(=O)(=O)CCCC(F)(F)F)c2)cccc1C(F)(F)F

>  <Population Healthy Nuclei (%)>
83

$$$$
>  <compound>
CCCCC1=NC2(CCCC2)C(=O)N1Cc1ccc(-c2ccccc2-c2nnn[nH]2)cc1

>  <Population Healthy Nuclei (%)>
72

$$$$

Now look at this one.
Recall the recorded Population Healthy Nuclei (%) for Cc1c(CC(=O)O)c2cccnc2n1Cc1ccc(S(C)(=O)=O)cc1C(F)(F)F with U2OS and state it. 78

###

System: Fibroblast
procedure details: Multiplex assay against human fibroblast
Assay type: toxicity, cell-based
experimental conditions: 24 h, 10 µM, compound concentration 10 uM, replicate 2
observable: Population Healthy Nuclei (%)
Kindly answer with a numeric value in %, unit omitted.

Reference set, count: 5
>  <compound>
CC(C)COc1ccc(CNC(=O)N(Cc2ccc(F)cc2)C2CCN(C)CC2)cc1 [PIMAVANSERIN]

>  <Population Healthy Nuclei (%)>
50

$$$$
>  <compound>
O=C(CCCc1ccccc1)Nc1nc2ccccc2c(=O)s1

>  <Population Healthy Nuclei (%)>
39

$$$$
>  <compound>
Cc1noc(-c2ccc(-c3ccc(CC(=O)O)cc3)cc2)c1NC(=O)O[C@H](C)c1ccccc1Cl

>  <Population Healthy Nuclei (%)>
41

$$$$
>  <compound>
Cl.NCCc1ccc(O)c(O)c1 [DOPAMINE HYDROCHLORIDE]

>  <Population Healthy Nuclei (%)>
46

$$$$
>  <compound>
CC(=O)Nc1cccc2c1c(Sc1ccc(Cl)cc1)c(C)n2CC(=O)O [AZD1981]

>  <Population Healthy Nuclei (%)>
43

$$$$

# ---- query compound ----
If you can, please state the reported Population Healthy Nuclei (%) value of CC(/C=C1\SC(=S)N(CCCC(=O)Nc2ccc(C(=O)O)c(O)c2)C1=O)=C\c1ccccc1 . 53

###

System: U2OS
procedure details: Multiplex assay against U2OS
Assay type: toxicity, cell-based
experimental conditions: human, 48 h, 10 µM, compound concentration 10 uM, replicate 1
Catalogue of Population Pyknosed Nuclei (%) values
Entry rule: numbers only, all in %.

Consider the reported Population Pyknosed Nuclei (%) for these compounds:
>  <compound>
CN[C@@H](C)C(=O)N[C@H](C(=O)N1CCC[C@H]1C(=O)Nc1snnc1-c1ccccc1)C1CCCCC1 [GDC-0152]

>  <unit abbrev>
%

>  <Population Pyknosed Nuclei (%)>
29

$$$$
>  <compound>
Cc1onc(-c2ccccc2Cl)c1C(=O)N(C)c1ccc(Cl)cc1

>  <unit abbrev>
%

>  <Population Pyknosed Nuclei (%)>
9

$$$$
>  <compound>
O=C(NCCN1CCC(n2c(=O)[nH]c3cc(Cl)ccc32)CC1)c1ccc(F)cc1 [HALOPEMIDE]

>  <unit abbrev>
%

>  <Population Pyknosed Nuclei (%)>
14

$$$$

Note: attention shifts to another entry.
Entry CC(C)c1noc(N2CCC(COc3ccc(-c4ccc(S(C)(=O)=O)cc4)nc3)CC2)n1 [GSK-1292263] has what Population Pyknosed Nuclei (%)? 9
